- System: ACHN
- TEST_METHOD_NOTES: NCI tumour cell line growth inhibition, 48 h
Active and inactive are the calls of the source. Cut-off read from the data, not from the text of the source: active = GI50 up to about 1.1 µM and inactive = higher.
Respond using exactly one of the listed classes: active, inactive

[
  {
    "COMPOUND": "CC(C)(C)c1cc(OCc2nnc(S)n2N)c(Cl)cc1OCc1nnc(S)n1N",
    "CLASS_LABEL": "inactive"
  },
  {
    "COMPOUND": "Cc1cn(C2CC(O)C(CO)C2C)c(=O)[nH]c1=O (stereo unspecified)",
    "CLASS_LABEL": "inactive"
  },
  {
    "COMPOUND": "Cn1c2ccc([N+](=O)[O-])cc2c(=O)c2c(O)cc(O)cc21",
    "CLASS_LABEL": "inactive"
  }
]

Q) What did the test return for N#Cc1cc([N+](=O)[O-])ccc1NC(=O)C(F)(F)F ?
A) inactive

Q) What did the test return for COC(CCC[N+](C)(C)C)CC[N+](C)(C)C (stereo unspecified) ?
A) inactive

Q) What did the test return for O/N=N\c1nc(-c2ccccn2)nc2ccccc12 ?
A) inactive

Q) What did the test return for Cc1cc(N(CCC#N)CCC#N)ccc1/C=C1/CN(N2C(=O)/C(=C/c3ccc(N(CCC#N)CCC#N)cc3C)N=C2c2ccccc2)C(c2ccccc2)=N1 ?
A) inactive

Q) What did the test return for Clc1ccc(Cc2nc3ccccc3nc2-c2cccc(Cl)c2)cc1 ?
A) inactive

Q) What did the test return for CC1=CC(C)C(O)C(C)/C=C\C(O)C/C=C(/C)C(=O)CC(O)C(C)\C=C/C=C\C=C/C(=O)NC2=C(O)C(=O)c3c(cc(C)c(O)c3C1=O)C2=O (stereo unspecified) ?
A) inactive

Q) What did the test return for CC1(C)CCCCCCCCCC(C)(CCCCCCCCCCCCO)C1=O (stereo unspecified) ?
A) inactive

Q) What did the test return for O=C(Nc1ccc(Br)cc1)C(=O)C(C(=O)c1ccc(Cl)c(Cl)c1)C1OC(=O)c2ccccc21 (stereo unspecified) ?
A) inactive

Q) What did the test return for CC1(C)C(=O)C(C)(C)C1=S ?
A) inactive

###

- System: Malme-3M
- TEST_METHOD_NOTES: NCI tumour cell line growth inhibition, 48 h
The source made the active and inactive calls. Cut-off read from the data, not from the text of the source: active = GI50 up to about 1.1 µM and inactive = higher.
GI50 by entry:

[
  {
    "MOLECULE": "CC1(C#N)CC(C)(C)C(/C=C2/CC(C)(C)C(/C=C3/OC(=N)CC3(C)C)=N2)=N1 (stereo not given)",
    "RESULT": "0.564 µM (active)"
  },
  {
    "MOLECULE": "Clc1ccc(Cc2nc3ccccc3nc2-c2cccc(Cl)c2)cc1",
    "RESULT": "2.25 µM (inactive)"
  },
  {
    "MOLECULE": "O=Cc1ccc2c(c1)CC1(C2)Cc2ccc3c(c2C1)CCC3 (stereo not given)",
    "RESULT": "6.22 µM (inactive)"
  },
  {
    "MOLECULE": "CC(=O)OC(=C(C#N)C#N)c1nccnc1C(=O)O",
    "RESULT": "> 100 µM (inactive)"
  },
  {
    "MOLECULE": "CCSc1nc(N/N=C/c2cccs2)c2cnn(CO)c2n1",
    "RESULT": "13.8 µM (inactive)"
  },
  {
    "MOLECULE": "O=[N+]([O-])c1cc2oc(COc3ccccc3)nc2cc1Cl",
    "RESULT": "33.7 µM (inactive)"
  },
  {
    "MOLECULE": "COc1cc(C2c3cc4c(cc3OC(O)C2C)OCO4)cc(OC)c1O (stereo not given)",
    "RESULT": "3.86 µM (inactive)"
  },
  {
    "MOLECULE": "CCOC(=O)[C@H](C)OC(=O)[C@@](C)(NC(=O)c1ccccc1C(=O)OC)[C@@H]1NC=C(C(=O)OC)CS1",
    "RESULT": "97.3 µM (inactive)"
  }
]

Q) Find GI50 for NS(=O)(=O)c1ccc(NS(=O)(=O)c2ccc(NC(=O)N(c3ccccc3)c3ccccc3)cc2)cc1 on Malme-3M and write it down.
A) 27.3 µM (inactive)

Q) Find GI50 for COC1CC(C)(NC(C)=O)C2OC(c3ccccc3)OCC2O1 (stereo not given) on Malme-3M and write it down.
A) > 100 µM (inactive)

Q) Find GI50 for CC(C)(C)OC(=O)n1c(Cl)c(C=O)c2ccccc21 on Malme-3M and write it down.
A) 19.1 µM (inactive)

###

- Test system: HOP-18
- TEST_METHOD_NOTES: NCI tumour cell line growth inhibition, 48 h
Active and inactive are the calls of the source. Rule as the data show it: active = GI50 up to about 1.1 µM and inactive = higher.
Respond using exactly one of the listed classes: true (1) (active), false (0) (inactive)

[
  {
    "COMPOUND": "CSc1cc(-c2cc3ccccc3o2)oc(=O)c1C#N",
    "CLASS_LABEL": "true (1)"
  },
  {
    "COMPOUND": "COc1cc(O)c2c(c1)C(=O)c1cc(C)cc(O)c1C2=O [PHYSCION]",
    "CLASS_LABEL": "false (0)"
  },
  {
    "COMPOUND": "O=S1(=O)OCCOS(=O)(=O)C1Cc1ccccc1",
    "CLASS_LABEL": "false (0)"
  },
  {
    "COMPOUND": "CC1=CC(N2C(=O)C(C)=CC2O)NC1=O (stereo unspecified)",
    "CLASS_LABEL": "true (1)"
  }
]

Q) What did the test return for CC(C)(C)C1CC[C@H]2c3c([nH]c4ccc(Br)cc34)[C@H]3C(=O)N(c4ccccc4)C(=O)[C@H]3[C@H]2C1 (stereo partly specified) ?
A) false (0)

Q) What did the test return for NC1=NN(c2ccccc2)C(=O)C1C(=O)C(=O)Nc1nccs1 (stereo unspecified) ?
A) false (0)

Q) What did the test return for COC1(OC)CC2CCCCC2=C(C)N1S(=O)(=O)c1ccccc1 (stereo unspecified) ?
A) false (0)

Q) What did the test return for CC1=C(N2CC2)C(=O)C(C)=C(N2CC2)C1=O ?
A) true (1)

Q) What did the test return for COc1ccc(OC)c(NC(=O)C(=O)C(C(C)=O)c2nc3ccc(Cl)cc3nc2O)c1 (stereo unspecified) ?
A) false (0)

###

- Test system: HCT-116
- TEST_METHOD_NOTES: NCI tumour cell line growth inhibition, 48 h
Activity calls are given as the source filed them. Rule as the data show it: active = GI50 up to about 1.1 µM and inactive = higher.
GI50 by entry:

Would you please look over these solved cases?
[
  {
    "COMPOUND": "Cc1ccc2c(=O)cc(-c3ccc(-c4ccccc4)s3)[nH]c2n1",
    "MEASURE": "GI50",
    "RESULT": "25.6 µM (inactive)"
  },
  {
    "COMPOUND": "N#Cc1cc([N+](=O)[O-])ccc1NC(=O)C(F)(F)F",
    "MEASURE": "GI50",
    "RESULT": "> 42.9 µM (inactive)"
  },
  {
    "COMPOUND": "COC1=CC(=O)c2c(O)c3c(c(O)c2C1=O)CC(C)(O)OC3 (stereo unspecified) [FUSARUBIN]",
    "MEASURE": "GI50",
    "RESULT": "2.96 µM (inactive)"
  },
  {
    "COMPOUND": "O=C1NC(c2ccc(O)cc2)C2CCC1C2 (stereo unspecified)",
    "MEASURE": "GI50",
    "RESULT": "> 100 µM (inactive)"
  },
  {
    "COMPOUND": "CC1=NC=C(O)c2ccccc2O1",
    "MEASURE": "GI50",
    "RESULT": "> 100 µM (inactive)"
  },
  {
    "COMPOUND": "Cn1c(C(C#N)c2nc(Cl)ncc2Br)nc2ccccc21 (stereo unspecified)",
    "MEASURE": "GI50",
    "RESULT": "> 100 µM (inactive)"
  },
  {
    "COMPOUND": "C=C(C)[C@@H]1CC[C@]2(C(=O)OC)CC[C@]3(C)[C@H](CC[C@@H]4[C@@]5(C)CC[C@H](O)C(C)(C)[C@@H]5CC[C@]43C)[C@@H]12 [METHYL BETULINATE]",
    "MEASURE": "GI50",
    "RESULT": "17.4 µM (inactive)"
  },
  {
    "COMPOUND": "CCOC(=O)/C=C(\\C)c1ccc(Cl)cc1",
    "MEASURE": "GI50",
    "RESULT": "> 100 µM (inactive)"
  },
  {
    "COMPOUND": "Cc1cccc(NC(=O)c2cc3cc(/N=N/c4ccccc4Cl)ccc3oc2=O)c1",
    "MEASURE": "GI50",
    "RESULT": "23.7 µM (inactive)"
  },
  {
    "COMPOUND": "CCC(C)Cn1c(C)nc2c1C(=O)c1ccccc1C2=O (stereo unspecified)",
    "MEASURE": "GI50",
    "RESULT": "> 10 µM (inactive)"
  }
]

Q) Find GI50 for COc1ccc(/N=N/C(=N/NC(=O)c2ccc(C)cc2)c2ccc(N(CCC#N)CCC#N)cc2OC)cc1 on HCT-116 and write it down.
A) > 100 µM (inactive)

Q) Find GI50 for N=C(N)N/N=C/c1c(-c2ccc([N+](=O)[O-])cc2)nc2sccn12 on HCT-116 and write it down.
A) 1.63 µM (inactive)

Q) Find GI50 for O=C(O)C1(C(=O)O)CCN(S(=O)(=O)c2ccccc2)CC1 on HCT-116 and write it down.
A) > 100 µM (inactive)

Q) Find GI50 for CCO/C=C/C(C)C1(C(=O)OCC)CCCCC1=O (stereo unspecified) on HCT-116 and write it down.
A) > 100 µM (inactive)

Q) Find GI50 for N/N=C1\C(=O)N(c2ccc(Cl)cc2Cl)C(=O)C(=O)C1c1nc2ccccc2o1 (stereo unspecified) on HCT-116 and write it down.
A) > 100 µM (inactive)

Q) Find GI50 for CCC(=O)C(C)C(=O)C(=O)C(=O)OC (stereo unspecified) on HCT-116 and write it down.
A) > 62.8 µM (inactive)
